// data source = patent US20170355757A1

- target.system: T1, human C5 R885C-mmh (human, UniProt P01031 19-1676)
- T1 construct: also called human C5 variant R885C
- assay.procedure: SPR, mAb captured via anti-hFc, 25C
measure: kon (M⁻¹ s⁻¹)

>  <binder>
H4H12163P (antibody, human IgG4, V domains shown, Human IgG4 Fc with S108P hinge mutation (H4H)) VH: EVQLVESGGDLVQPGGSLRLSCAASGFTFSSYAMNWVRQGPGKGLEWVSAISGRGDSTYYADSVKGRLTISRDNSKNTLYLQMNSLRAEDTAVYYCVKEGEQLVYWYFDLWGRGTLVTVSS VL: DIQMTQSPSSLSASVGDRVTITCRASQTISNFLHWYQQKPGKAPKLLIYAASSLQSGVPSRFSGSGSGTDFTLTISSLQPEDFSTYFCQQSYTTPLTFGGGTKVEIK

>  <measure>
kon

>  <recorded.number>
504000

$$$$
>  <binder>
H4H12167P (antibody, human IgG4, V domains shown, Human IgG4 Fc with S108P hinge mutation (H4H)) VH: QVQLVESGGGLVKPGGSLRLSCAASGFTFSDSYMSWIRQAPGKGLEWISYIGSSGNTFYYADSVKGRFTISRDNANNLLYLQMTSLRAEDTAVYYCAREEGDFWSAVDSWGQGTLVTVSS VL: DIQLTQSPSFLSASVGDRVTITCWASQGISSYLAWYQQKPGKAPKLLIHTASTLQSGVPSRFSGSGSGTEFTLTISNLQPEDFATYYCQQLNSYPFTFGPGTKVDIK

>  <measure>
kon

>  <recorded.number>
711000

$$$$
>  <binder>
H4H12171P (antibody, human IgG4, V domains shown, Human IgG4 Fc with S108P hinge mutation (H4H)) VH: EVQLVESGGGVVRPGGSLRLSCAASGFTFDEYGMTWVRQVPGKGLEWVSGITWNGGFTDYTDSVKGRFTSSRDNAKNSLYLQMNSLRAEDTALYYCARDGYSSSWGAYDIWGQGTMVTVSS VL: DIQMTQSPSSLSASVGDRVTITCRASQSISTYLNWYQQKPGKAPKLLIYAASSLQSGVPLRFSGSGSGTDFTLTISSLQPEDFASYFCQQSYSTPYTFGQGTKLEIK

>  <measure>
kon

>  <recorded.number>
379000

$$$$
